System: SNB-75 CNS
method_summary: NCI-60 one-dose screen, 48 h (100 = growth as untreated, 0 = no growth, -100 = all killed)
run_parameters: 10 µM
The panel holds about 83,000 compounds, 20% with a hit somewhere; the sample as a whole holds those more often.
quantity_kind: growth (%)
Response body: numeric value in %, unit text excluded.

Answered cases to consult:
O=C1/C(=C/c2ccc([N+](=O)[O-])s2)Oc2cc(Cl)ccc21 : 58.8
COc1cc(-c2nn(-c3cccc(NC(=O)CCNc4ccc(N5CCOCC5)cc4)c3)cc2-c2ccncc2)ccc1Cl : 40.1

Q. Value lookup for growth; key = O=C(CSc1nnc(-c2ccc(Cl)cc2)o1)Nc1ccc(C(=O)/C=C/c2ccc(Cl)cc2)cc1
A. 98.1

Q. Please answer likewise for O=C(/C=C/C=C/c1c(C2CC2)nc2ccccc2c1-c1ccc(F)cc1)c1cccs1
A. 43.4

Q. What about this compound? COc1ccc(-c2nn(-c3cccc(Cl)c3)cc2C=C(C#N)C#N)cc1
A. 3.23

---

Tested on: HOP-92 NSCLC
method_summary: NCI-60 one-dose screen, 48 h
run_parameters: 10 µM
About 83,000 compounds went through this panel and 20% of them were active in at least one assay; those are over-represented in the sample as a whole. Calls of active or inactive are those of the source. Rule for the calls: active = growth percent below 10; inactive = the rest.
Please state which outcome applies, choosing from 1 (yes) (active), 0 (no) (inactive)

Take a look at these entries with their results.
COc1ccc2c(c1)C(CC(=O)NN)CCC2 (stereo not given) : 0 (no)
CC(C)(C)c1ccc(S(=O)(=O)Oc2ccc(NC(=O)C3CCCCC3)cc2)cc1 : 0 (no)
O=C1OC(C(Cl)(Cl)Cl)OC1C(Cl)(Cl)Cl (stereo not given) : 0 (no)
O=C(NCCCNS(=O)(=O)c1ccc(Cl)cc1)Nc1ccc(-n2cc(-c3ccncc3)c(-c3ccc(Cl)c(O)c3)n2)cc1 : 0 (no)
O=C(CCNC(=O)c1nc(-c2ccccc2)n(-c2ccc(Cl)cc2)n1)NO : 0 (no)
COc1ccc(-c2n[nH]nc2-c2cc(OC)c(OC)c(OC)c2)cc1 : 1 (yes)
C#CCOc1c(OC)cc(C(=O)/C(C)=C/c2cccc(N=[N+]=[N-])c2)cc1OC : 0 (no)
CC(=O)[C@H]1CC[C@]2(C)[C@@H]1CC[C@@H]1[C@@]3(C)CC(CCC#N)(CCC#N)C(=O)C(C)(C)[C@@H]3CC[C@]12C : 0 (no)
O=c1cn[nH]c2ccc(Br)cc12 : 0 (no)

Next up:
Q. Kindly provide the recorded test outcome for the following compound: CC[C@@H](C(=O)[C@H](C)[C@H](O)[C@@H](C)[C@H]1O[C@H]([C@@H](CC)C(=O)N(CC)CC)CC[C@H]1C)C1O[C@]2(C=C[C@@H](O)[C@]3(CC[C@@](C)([C@H]4CC[C@](O)(CC)[C@H](C)O4)O3)O2)[C@H](C)C[C@@H]1C (stereo not given in full)
A. 1 (yes)

---

Tested on: U251 CNS
method_summary: NCI-60 one-dose screen, 48 h (100 = growth as untreated, 0 = no growth, -100 = all killed)
run_parameters: 10 µM
About 83,000 compounds went through this panel and 20% of them were active in at least one assay; those are over-represented in the sample as a whole.
Catalogue of compounds with associated growth
Response body: numeric value in %, unit text excluded.

Here is how some compounds turned out for growth.
CCOC(=O)c1cc(C(=O)c2ccc(Cl)cc2)n2ccc(-c3cc[n+](CC(=O)c4ccc(OC)cc4)cc3)cc12 : 13.2
COc1cc(-c2csc(NC(=O)Nc3cc(C(F)(F)F)cc(C(F)(F)F)c3)n2)cc(OC)c1OC : 9.2
CCC(c1ccc(OC)cc1)C(CC)c1ccc(O)c(CN2CCN(C)CC2)c1 (stereo not drawn) : 29.8
CS(=O)(=O)c1nccc(-c2c(-c3cccc(OCCc4ccccc4)c3)nc3sccn23)n1 : 99.4
O=S(=O)(O)c1ccc(Cl)cc1 : 101
O=C(Cn1cc(CO)nn1)Nc1nc2ccccc2s1 : 102
IC(I)I : 102
CN(C)CCCOc1ccc(NC2=C(Cl)C(=O)C(Nc3ccc(OCCCN(C)C)cc3)=C(Cl)C2=O)cc1 : -91.2
Nc1cc(-c2ccncc2)c[nH]c1=O : 103
CC(C)(C)OC(=O)N1CCc2c(sc3ncnc(N/N=C/c4ccc(Br)cc4)c23)C1 : 67.3

Q. // returns reported growth for input CC(=O)C1N=NCC1c1ccccc1 (stereo not drawn)
A. 110

Q. Can you check COc1ccc2nc(-c3ccc(Cl)cc3)cc(-c3nnc(SC/C(=N\O)c4ccccc4)n3-c3ccccc3)c2c1 next?
A. 85.8

Q. Would you kindly repeat that for COc1ccc2c(c1)C(=O)/C(=C/c1cccc(OCC(=O)c3ccc([N+](=O)[O-])cc3)c1)CO2 ?
A. 22.4

Q. Moving on to the next compound: NS(=O)(=O)Oc1ccc2c(ccn2C(=O)C23CC4CC(CC(C4)C2)C3)c1
A. 99.2

Q. Entry to check: Cc1cc(=O)n2nnc3cc(C(F)(F)F)ccc3n12
A. 107

Q. What do we get for CCNCC(=O)Nc1ccc(C(=O)OCC)cc1 ?
A. 97.7
